Hello, the source for this data is ChEMBL document CHEMBL1201862, in case you need it.

- System: SW-620
- Protocol description: NCI tumour cell line growth inhibition, 48 h
Active and inactive are the calls of the source. Rule as the data show it: active = GI50 up to about 1.1 µM and inactive = higher.
Tick one outcome: active, inactive

Previously resolved entries follow.
CCSC1=C(C#N)C2(CCCCC2)C2=C(O)CC(C)(C)CC2=N1: inactive
COc1cc2c(cc1OC)-c1cc3ccccc3c[n+]1CC2: inactive
C/C(=C\c1csc(C)n1)[C@@H]1C[C@@H]2O[C@@H]2CCC[C@H](C)[C@H](O)[C@@H](C)C(=O)C(C)(C)[C@@H](O)CC(=O)O1.C/C(=C\c1csc(C)n1)[C@@H]1C[C@@H]2O[C@]2(C)CCC[C@H](C)[C@H](O)[C@@H](C)C(=O)C(C)(C)[C@@H](O)CC(=O)O1: active

Could you check what this test reported for COc1c2occc2cc2ccc(=O)oc12 ? inactive

----------
- System: SK-MEL-2
- Protocol description: NCI tumour cell line growth inhibition, 48 h
Active and inactive are the calls of the source. Cut-off read from the data, not from the text of the source: active = GI50 up to about 1.1 µM and inactive = higher.
Test readout: GI50

Take a look at these entries with their results.
CC(C)NC(=O)OCc1c(COC(=O)NC(C)C)c(-c2ccc[n+](COC(=O)C(C)C)c2)n2c1CCC2: > 83.4 µM (inactive)
CCOC(=O)C(CCSC)(CCSC)C(=O)OCC: > 100 µM (inactive)

Provide GI50 values for the following items, in order.
1. CC(=O)OC(=C(C#N)C#N)c1nccnc1C(=O)O
2. Cc1cc2c(C)n(Cc3ccc(Cl)cc3Cl)nc2c(C#N)c1C

1. > 100 µM (inactive)
2. > 61.4 µM (inactive)

Would you mind listing GI50 for each of the following molecules?
1. CC(C)Sc1nc(C#N)cc2c1CCCC2
2. O=c1nc(/C=C/c2ccccc2Cl)cc2n1CCN2CCO

1. 23.2 µM (inactive)
2. 72.3 µM (inactive)

----------
- Test system: KM12
- Protocol description: NCI tumour cell line growth inhibition, 48 h
Calls of active or inactive are those of the source. Cut-off read from the data, not from the text of the source: active = GI50 up to about 1.1 µM and inactive = higher.
Test readout: GI50

Some molecules with known GI50 results, for comparison:
CC1=NN(C(=O)Cc2ccccc2)C(=O)/C1=C\c1ccccc1O: > 100 µM (inactive)
Cc1ccc2c(=O)cc(-c3ccc(-c4ccccc4)s3)[nH]c2n1: > 24.5 µM (inactive)
COCn1cnc2c(=O)n(-c3ccc(C)cc3)c(=S)n(-c3ccc(C)cc3)c21: > 100 µM (inactive)
CC1(C)CNC(c2ccc3c(c2)Cc2cc(C4=NC(C)(C)CN4)ccc2-3)=N1: 28.1 µM (inactive)
c1ccc(NN(Cc2cnccn2)c2ccccc2)cc1: > 100 µM (inactive)
C[N+]1(CCCCN2c3ccccc3Sc3cc(N=[N+]=[N-])ccc32)CCN(C(=O)CCNC(=O)Cc2ccc(C(=O)c3ccccc3)cc2)CC1: 24.3 µM (inactive)

# per-item lookup of GI50; items listed below
1. COC(C)(C)[C@H](O)C(O)CC(C)[C@@H]1CCC23CC12CCC1[C@@]2(C)CCC(OC(C)=O)C(C)(C)C2CC(OC2OC(COC(C)=O)C(O)C(O)C2O)[C@]13C (some centres undefined)
2. O=C(c1ccc([N+](=O)[O-])cc1)N1CCCC1
3. Nc1nc2c(ncn2Cc2ccccc2CCO)c(=O)[nH]1
4. O=C1/C(=C/c2ccco2)N=C(c2ccccc2)N1c1ccc(S(=O)(=O)Nc2nccs2)cc1
5. COC(=O)/C=C(C)/C=C/C1OC(C)OCC1O (centres undefined)
6. CCOc1ccccc1N1C(=O)C(=O)C(c2nc3ccccc3s2)C(=O)C1=O
7. CC(=O)OC/C=C(/C=C/CNC1CCCCC1)OC(C)=O

["2.16 µM (inactive)", "> 100 µM (inactive)", "> 100 µM (inactive)", "> 100 µM (inactive)", "> 100 µM (inactive)", "98.2 µM (inactive)", "15.5 µM (inactive)"]

Go through the list and state GI50 for each entry.
1. CSc1c(C#N)c(N)nc2c(/N=N\c3ccc(Br)cc3)c(N)nn12
2. Cc1cc(C)n(-c2c(O)ccc(O)c2-n2nc(C)cc2C)n1

["9.02 µM (inactive)", "> 100 µM (inactive)"]

Each of the following entries comes with a recorded value; kindly state GI50 for each.
1. Cc1cc(N(CCC#N)CCC#N)ccc1/C=C1/CN(N2C(=O)/C(=C/c3ccc(N(CCC#N)CCC#N)cc3C)N=C2c2ccccc2)C(c2ccccc2)=N1
2. COc1ccccc1C1SCC(=O)N1c1ccc(-c2ccc(-n3c(-c4ccccc4)nc4ccccc4c3=O)cc2)cc1 (centres undefined)
3. CC(C)CNP(=O)(NCC(C)C)Oc1ccc(CC(NC(=O)OCc2ccccc2)C(=O)OCc2ccccc2)cc1 (centres undefined)
4. COC(=O)C(=O)C(C(C)=O)C(=O)NCc1ccc(OC)c(OC)c1 (centres undefined)

1. > 100 µM (inactive)
2. > 100 µM (inactive)
3. 18.1 µM (inactive)
4. > 100 µM (inactive)

----------
- Test system: HL-60
- Protocol description: NCI tumour cell line growth inhibition, 48 h
Activity calls are given as the source filed them. No stated cut-off is given here; in the data, active = GI50 up to about 1.1 µM and inactive = higher.
Return exactly one item of yes (1) (active), no (0) (inactive)

# count of solved cases: 4
O=[N+]([O-])c1ccc(CSc2nn(Cc3ccc([N+](=O)[O-])cc3)cc3ncnc2-3)cc1: no (0)
CC(C)=CCC/C(C)=C/CCC1(C)C=Cc2c(c3ccccc3oc2=O)O1 (stereo not drawn): no (0)
CSc1c(C#N)c(N)nc2c(/N=N\c3ccc(Br)cc3)c(N)nn12: no (0)
CCNc1cnc2c(n1)c(=O)n(C)c(=O)n2C: no (0)

Returns: the outcome recorded for CCOC(=O)C1=C(Nc2ccc(Br)cc2)OCC1=O in this assay. no (0)

Short answer needed: outcome of this test for CCO/C=C/C(C)C1(C(=O)OCC)CCCCC1=O (stereo not drawn) ? no (0)

Query: recorded result category for CC1=CC(C)C(O)C(C)/C=C\C(O)C/C=C(/C)C(=O)CC(O)C(C)\C=C/C=C\C=C/C(=O)NC2=C(O)C(=O)c3c(cc(C)c(O)c3C1=O)C2=O (stereo not drawn) in this test no (0)

Per the records of this test, what outcome belongs to O=C(CC(O)(C(F)(F)F)C(F)(F)F)c1cccs1 ? no (0)

GET /call?item= Cc1csc2nc(-c3ccncc3)cn12 returns the recorded outcome of this test. no (0)

Entry COC(=O)C1CCc2nnc(-c3ccccc3)n21 (stereo not drawn) : call = ? no (0)

Write down the call the test reported for this compound. Item: CCOc1ccc(C(CN2CCOCC2)C(C)=O)cc1OC (stereo not drawn) no (0)

Called result for Cc1c(F)c(N)c2c(=O)cc(-c3ccc(N)c(F)c3)oc2c1F no (0)

----------
- Test system: UO-31
- Protocol description: NCI tumour cell line growth inhibition, 48 h
Activity calls are given as the source filed them. No stated cut-off is given here; in the data, active = GI50 up to about 1.1 µM and inactive = higher.
I'd be grateful if you could share measured GI50 for these entries.

Return reported GI50 values for all items listed beneath this line.
1. CSc1ncc2c(n1)sc1c(=O)n(-c3ccccc3)cnc12
2. CCCCCCc1cc(C=O)sc1-c1ccc(-c2sc(-c3ccc(-c4ccc(-c5cc(CCCCCC)c(-c6ccc(-c7sc(C=O)cc7CCCCCC)s6)s5)s4)s3)cc2CCCCCC)s1
3. N#C/C(=C\c1ccccc1Br)C(=O)c1ccccc1
4. CC1=NC=C(O)c2ccccc2O1
5. O=c1c2cc(Br)ccc2oc2ccc(Br)cc12

1. > 100 µM (inactive)
2. > 100 µM (inactive)
3. > 38.5 µM (inactive)
4. 85.5 µM (inactive)
5. > 100 µM (inactive)

Go through the items and report each one's GI50.
1. OC1[C@H](O)CN(OCc2ccccc2)C[C@@H]1O (some centres undefined)
2. COC(=O)C1=C(C)NC(C)=C(C(=O)OCCCN2CCC(c3ccccc3)(c3ccccc3)CC2)[C@H]1c1cccc([N+](=O)[O-])c1 [NIGULDIPINE]
3. Cc1n[nH]c(=O)n1N1C(=O)c2ccccc2C1=O
4. CC(=O)NC1C(OCC(=O)NCCNc2ccc([N+](=O)[O-])c3[nH]c4ccccc4c(=O)c23)C(O)C(CO)OC1(C)OCc1ccccc1 (centres undefined)

1. > 100 µM (inactive)
2. 2 µM (inactive)
3. > 100 µM (inactive)
4. > 100 µM (inactive)

----------
So I've got a bunch of molecules here, and I need their GI50 values.
- Tested on: HCT-15
Give bare numbers, in µM.

CNC1=C(C)C(=O)C2=C(C1=O)C(COC(N)=O)C1(OC)C3NC3CN21 (configuration not stated): 0.391
COC(=O)C(=O)C(C(=O)C(=O)Nc1cc([N+](=O)[O-])ccc1[N+](=O)[O-])c1nc2ccc(C(=O)c3ccccc3)cc2nc1O (configuration not stated): 56.5
COc1ccc([N+](=O)[O-])c2c(NCC(O)CO)ccnc12 (configuration not stated): 16.1
O=C(/C=C/c1ccc(O)c(O)c1)OCCc1cccc2ccccc12: 1.28
Cc1noc(NC(=O)Nc2ccccc2F)c1C#N: 55.3

Value sought for every listed molecule: GI50.
1. CCN(CC)CCn1ccc(=O)c2cc3c(=O)ccn(CCN(CC)CC)c3c(C)c21
2. CC(=O)C1=C(C)N(c2ccccc2)C2(O)C3=C(C(=O)c4ccccc4C3=O)C(O)=CC12Cl (configuration not stated)
3. N=C(N)N/N=C/c1c(-c2ccc([N+](=O)[O-])cc2)nc2sccn12
4. CCN(CC)c1ccc(/N=N/c2ccc(-c3nc4cccn(C)c-4n3)cc2)cc1
5. O=[N+]([O-])c1ccc2c(c1)c(OCc1ccccc1)nn2Cc1ccccc1

[3.38, 3.73, 10.2, 3.75, 53]

Please go through the list and note GI50 for each molecule.
1. COc1cccc2c1cc([N+](=O)[O-])c1c(C(=O)O)cc3c(c12)OCO3 [ARISTOLOCHIC ACID]
2. O=Cc1ccc2c(c1)CC1(C2)Cc2ccc3c(c2C1)CCC3 (configuration not stated)
3. C[N+]1(CCCCN2c3ccccc3Sc3cc(N=[N+]=[N-])ccc32)CCN(C(=O)CCNC(=O)Cc2ccc(C(=O)c3ccccc3)cc2)CC1

1: 18.2; 2: 8.51; 3: 22.8

// batch mode: one GI50 value per listed entry
1. C[C@@H]1CC[C@@]2(NC1)O[C@H]1C[C@H]3[C@@H]4CC[C@H]5C[C@@H](O)CC[C@]5(C)[C@H]4CC[C@]3(C)[C@H]1[C@@H]2C
2. c1ccc(COc2nc3cc(C45CC6CC(CC(C6)C4)C5)ccc3[nH]2)cc1

36.9
3.72
